- Tested on: Staphylococcus aureus
- ASSAY DETAILS: Antibacterial activity against methicillin-resistant Staphylococcus aureus BAA 1720 assessed as inhibition of bacterial growth incubated for 18 hrs by CLSI protocol based two fold serial dilution method
- Format: functional
# key: entry, value: MIC
VALUE TYPE: MIC

STRUCTURE AS SMILES | VALUE TYPE | RESULT VALUE
COc1cccc(OC)c1C(=O)N[C@@H]1C(=O)N2[C@@H]1SC(C)(C)[C@@H]2C(=O)O | MIC | 256 mg/L
CN(C)C(=O)[C@H](O)[C@H](Cc1ccccc1)NC(=O)c1cc2cc(Cl)ccc2[nH]1 | MIC | > 128 mg/L
CCc1cncnc1N1CCN(Cc2nc3cc(C(F)(F)F)ccc3[nH]2)CC1 | MIC | 64 mg/L
NC(=O)c1c(F)ccc(OCc2nc3cc(Cl)cnc3s2)c1F | MIC | 1 mg/L

* * *

- Tested on: Staphylococcus aureus
- ASSAY DETAILS: Antibacterial activity against methicillin-resistant Staphylococcus aureus BAA 44 assessed as inhibition of bacterial growth incubated for 18 hrs by CLSI protocol based two fold serial dilution method
- Type: functional

STRUCTURE AS SMILES | TARGET ENTITY | MIC
CN(C)C(=O)[C@H](O)[C@H](Cc1ccccc1)NC(=O)c1cc2cc(Cl)ccc2[nH]1 | Staphylococcus aureus | > 128 µg/mL
CCc1cncnc1N1CCN(Cc2nc3cc(C(F)(F)F)ccc3[nH]2)CC1 | Staphylococcus aureus | 64 µg/mL
NC(=O)c1c(F)ccc(OCc2nc3cc(Cl)cnc3s2)c1F | Staphylococcus aureus | 1 µg/mL
COc1cccc(OC)c1C(=O)N[C@@H]1C(=O)N2[C@@H]1SC(C)(C)[C@@H]2C(=O)O | Staphylococcus aureus | 512 µg/mL

* * *

# key: entry, value: MIC
- Tested on: Staphylococcus aureus
- ASSAY DETAILS: Antibacterial activity against Staphylococcus aureus 29213 assessed as inhibition of bacterial growth incubated for 18 hrs by CLSI protocol based two fold serial dilution method
- Assay type: functional

MOLECULE | MIC
COCCOc1ccc2c(c1)ncn2-c1ccc2cccc(N3CCC(N)CC3)c2n1 | > 128 µg/mL
Cc1cnc(-c2cc(N3CCN(C(=O)CCS(C)(=O)=O)CC3)ncc2Cl)c(C)c1 | > 128 µg/mL
NC(=O)c1c(F)ccc(OCc2nc3cc(Cl)cnc3s2)c1F | 0.5 µg/mL
COc1ccccc1S(=O)(=O)Nc1ccc2c(c1)CN(C)C(=O)N2 | > 128 µg/mL
CCOC(=O)C(CCc1ccccc1)NC(C)C(=O)N1Cc2ccccc2CC1C(=O)O.Cl (centres undefined) | > 128 µg/mL
CN(C)C(=O)[C@H](O)[C@H](Cc1ccccc1)NC(=O)c1cc2cc(Cl)ccc2[nH]1 | > 128 µg/mL
COc1ccc(-c2cc3c(C)nc(N)nc3n([C@H]3CC[C@H](OCCO)CC3)c2=O)cn1 | > 128 µg/mL
CC1(C)CC(=O)c2c(C(F)(F)F)nn(-c3ccc(C(N)=O)c(N[C@H]4CC[C@H](OC(=O)CN)CC4)c3)c2C1 | > 128 µg/mL
CCc1cncnc1N1CCN(Cc2nc3cc(C(F)(F)F)ccc3[nH]2)CC1 | 128 µg/mL

* * *

- Tested on: Staphylococcus aureus
- ASSAY DETAILS: Antibacterial activity against methicillin-resistant Staphylococcus aureus ATCC 43300 assessed as inhibition of bacterial growth incubated for 18 hrs by CLSI protocol based two fold serial dilution method
- Assay type: functional
VALUE TYPE: MIC (µg/mL)

STRUCTURE AS SMILES | VALUE TYPE | RESULT VALUE
CCc1cncnc1N1CCN(Cc2nc3cc(C(F)(F)F)ccc3[nH]2)CC1 | MIC | 32
NC(=O)c1c(F)ccc(OCc2nc3cc(Cl)cnc3s2)c1F | MIC | 1
COc1cccc(OC)c1C(=O)N[C@@H]1C(=O)N2[C@@H]1SC(C)(C)[C@@H]2C(=O)O | MIC | 256
CN(C)C(=O)[C@H](O)[C@H](Cc1ccccc1)NC(=O)c1cc2cc(Cl)ccc2[nH]1 | MIC | 32
